assay.summary: CD-spectroscopy, helix content
Assay type: physicochemical
condition.parameters: 10 mM Tris, pH 7.4, buffer; 10 μM peptide, 37° C.
observation.type: Helix content, Buffer (%)
Answers are plain numbers, in %.

As a guide, the following entries are already answered.
Q. // Helix content, Buffer lookup, key: RVRRPPKGKHRKFHTHDKTA (RVRRPPKGKHRKFKHTHDKTA; listed as Homo sapiens) [RVR21]
A. 8

Q. // Helix content, Buffer lookup, key: LKKNGSCKRGPRTHYGQKAIL (human growth factor) [LKK21, FGF1_HUMAN aa 126-146]
A. 11

Q. // Helix content, Buffer lookup, key: LRPVQVRKIEIVRRKPIFKKATVT (LRPVQVRKIEIVRKKPIFKKATVT; listed as Homo sapiens) [LRP24]
A. 13

// next item, Helix content, Buffer requested
Q. // Helix content, Buffer lookup, key: LLGDFFRKSKEKIGKEFKRIVQRIKDFLRNLVPRTES [LL-37, reference compound]
A. 60

----------
assay.summary: Liposome leakage assay (carboxyfluorescein release), PC liposomes
condition.parameters: 10 mM Tris pH 7.4 with additional 150 mM NaCl, scale: Triton X100 = 100% release
Protocol: Dry lipid films were prepared by dissolving either dioleoylphosphatidylcholine (Avanti Polar Lipids, Alabaster, Ala.) (60 mol %) and cholesterol (Sigma, St Louis, Mo.) (40 mol %), or dioleoylphosphatidylcholine (30 mol %), dioleoylphosphatidic acid (Avanti Polar Lipids, Alabaster, Ala.) (30 mol %) and cholesterol (40 mol %) in chloroform, and then removing the solvent by evaporation under vacuum overnight. […]
Kindly state PC + NaCl (CF release, liposome leakage) for each of the entries shown.

As a guide, the following entries are already answered.
Q. // PC + NaCl (CF release, liposome leakage) lookup, key: LKKNGSCKRGPRTHYGQKAIL (human growth factor) [LKK21, FGF1_HUMAN aa 126-146]
A. 6 ± 2

Q. // PC + NaCl (CF release, liposome leakage) lookup, key: PKRKKKGGKNGKNRRNRKKKN (listed as Homo sapiens) [PKR21]
A. 6 ± 1

Look up PC + NaCl (CF release, liposome leakage) for the entries below, preserving their order.
1. RVRRPPKGKHRKFHTHDKTA (RVRRPPKGKHRKFKHTHDKTA; listed as Homo sapiens) [RVR21]
2. LKIKTKKVNTADQCANRCTRNKGL (listed as Homo sapiens) [LKI24]
3. GRPRESGKKRKRKRKLKPT (listed as Homo sapiens) [GRP19]
4. LRPVQVRKIEIVRRKPIFKKATVT (LRPVQVRKIEIVRKKPIFKKATVT; listed as Homo sapiens) [LRP24]
5. GKRKKKGKGLGKKRDPCLRKYK (listed as Homo sapiens) [GKR22]
6. LLGDFFRKSKEKIGKEFKRIVQRIKDFLRNLVPRTES [LL-37, reference compound]

A.
1. 6 ± 1
2. 6 ± 3
3. 4 ± 1
4. 4 ± 4
5. 4 ± 1
6. 73 ± 7

----------
assay.summary: CD-spectroscopy, helix content
Assay type: physicochemical
condition.parameters: 10 mM Tris, pH 7.4, buffer; 10 μM peptide, 37° C.
Kindly state Helix content, Buffer for each of the entries shown.
One number for each entry, in %.

As a guide, the following entries are already answered.
Q. // Helix content, Buffer lookup, key: GRPRESGKKRKRKRKLKPT (listed as Homo sapiens) [GRP19]
A. 9

Q. // Helix content, Buffer lookup, key: LKIKTKKVNTADQCANRCTRNKGL (listed as Homo sapiens) [LKI24]
A. 13

Look up Helix content, Buffer for the entries below, preserving their order.
1. GKRKKKGKGLGKKRDPCLRKYK (listed as Homo sapiens) [GKR22]
2. PKRKKKGGKNGKNRRNRKKKN (listed as Homo sapiens) [PKR21]

A.
1: 8; 2: 10

----------
System: Erythrocytes
Format: cell-based
condition.parameters: 1 h
Method: EDTA-blood was centrifuged at 800 g for 10 min, whereafter plasma and buffy coat were removed. The erythrocytes were washed three times and resuspended in 5% PBS, pH 7.4. […] The absorbance of hemoglobin release was measured at λ 540 nm and is in the plot expressed as % of TritonX-100 induced hemolysis (FIG. 5 and table 6). The peptides in table 3A (SEQ ID No. 12-18) were evaluated as described above.
No end group written: not given here.
observation.type: Erythrocytes Hemolysis (%) Mean
One number for each entry, in %.

As a guide, the following entries are already answered.
Q. // Erythrocytes Hemolysis (%) Mean lookup, key: KRKKKGKGLGKKRWPCLRKY [KRK20: G]
A. 2.29

Q. // Erythrocytes Hemolysis (%) Mean lookup, key: KRKKKGKGWGKKRWPCLRKY [KRK20: F]
A. 3.14

Q. // Erythrocytes Hemolysis (%) Mean lookup, key: KRKKKGKGWGKKRLPCLRKY [KRK20: E]
A. 2.73

Look up Erythrocytes Hemolysis (%) Mean for the entries below, preserving their order.
1. KRKRKGKGLGKKKDPCLRKF [KRK20: B]
2. KRKKKGKGWGKKRDPCLRKY [KRK20: D]
3. KRKKKGKGLGKKRLPCLRKY [KRK20: C]
4. KRKKKGKGLGKKRDPCLRKY [KRK20: A]

A.
1: 2.26; 2: 2.56; 3: 2.31; 4: 2.25

----------
assay.summary: CD-spectroscopy, helix content
Assay type: physicochemical
condition.parameters: 10 mM Tris, pH 7.4, PC liposome dispersion (100 μM lipid); 10 μM peptide, 37° C.
observation.type: Helix content, PC (%)
Give bare numbers, in %.

Look up Helix content, PC for the entries below, preserving their order.
1. LKIKTKKVNTADQCANRCTRNKGL (listed as Homo sapiens) [LKI24]
2. PKRKKKGGKNGKNRRNRKKKN (listed as Homo sapiens) [PKR21]
3. RVRRPPKGKHRKFHTHDKTA (RVRRPPKGKHRKFKHTHDKTA; listed as Homo sapiens) [RVR21]
4. LKKNGSCKRGPRTHYGQKAIL (human growth factor) [LKK21, FGF1_HUMAN aa 126-146]

A.
9
9
11
13

----------
assay.summary: CD-spectroscopy, helix content
Type: physicochemical
condition.parameters: 10 mM Tris, pH 7.4, PA liposome dispersion (100 μM lipid); 10 μM peptide, 37° C.
observation.type: Helix content, PA (%)
Numbers only, in %.

As a guide, the following entries are already answered.
Q. // Helix content, PA lookup, key: LKKNGSCKRGPRTHYGQKAIL (human growth factor) [LKK21, FGF1_HUMAN aa 126-146]
A. 10

Q. // Helix content, PA lookup, key: LRPVQVRKIEIVRRKPIFKKATVT (LRPVQVRKIEIVRKKPIFKKATVT; listed as Homo sapiens) [LRP24]
A. 15

Q. // Helix content, PA lookup, key: GRPRESGKKRKRKRKLKPT (listed as Homo sapiens) [GRP19]
A. 8

Q. // Helix content, PA lookup, key: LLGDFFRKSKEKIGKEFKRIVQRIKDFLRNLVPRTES [LL-37, reference compound]
A. 100

Q. // Helix content, PA lookup, key: GKRKKKGKGLGKKRDPCLRKYK (listed as Homo sapiens) [GKR22]
A. 10

Look up Helix content, PA for the entries below, preserving their order.
1. RVRRPPKGKHRKFHTHDKTA (RVRRPPKGKHRKFKHTHDKTA; listed as Homo sapiens) [RVR21]
2. LKIKTKKVNTADQCANRCTRNKGL (listed as Homo sapiens) [LKI24]
3. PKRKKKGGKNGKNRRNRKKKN (listed as Homo sapiens) [PKR21]

A.
1: 6; 2: 14; 3: 9

----------
Kindly state Helix content, PC for each of the entries shown.
assay.summary: CD-spectroscopy, helix content
Assay type: physicochemical
condition.parameters: 10 mM Tris, pH 7.4, PC liposome dispersion (100 μM lipid); 10 μM peptide, 37° C.
Procedure: The CD spectra of the peptides in solution were measured on a Jasco J-810 Spectropolarimeter (Jasco, U.K.). The measurements were performed at 37° C. in a 10 mm quartz cuvet under stirring and the peptide concentration was 10 μM. […] The fraction of the peptide in α-helical conformation, Xα, is calculated from where A is the recorded CD signal at 225 nm, and Aα and Ac are the CD signal at 225 nm for a reference peptide in 100% α-helix and 100% random coil conformation, respectively. […]
Give bare numbers, in %.

Q. // Helix content, PC lookup, key: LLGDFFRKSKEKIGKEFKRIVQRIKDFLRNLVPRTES [LL-37, reference compound]
A. 100

Look up Helix content, PC for the entries below, preserving their order.
1. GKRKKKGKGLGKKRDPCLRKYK (listed as Homo sapiens) [GKR22]
2. GRPRESGKKRKRKRKLKPT (listed as Homo sapiens) [GRP19]
3. LRPVQVRKIEIVRRKPIFKKATVT (LRPVQVRKIEIVRKKPIFKKATVT; listed as Homo sapiens) [LRP24]

A.
1: 5; 2: 8; 3: 10

Each recorded value in this set is attributed to patent US20090312265A1.
